All values here come from PubChem BioAssay AID2060888.

In this section, each of the compounds is paired with its reported viability, T/C.
Tested on: 695427-040-R-J1-PDC complex spheroid viability
Experiment: Anticancer human tumor 695427-040-R-J1-PDC patient-derived colon adenocarcinoma cell line growth inhibition [RAS]
Conditions: second compound 0.003 µM; first compound 0.1 µM; stronger effect = lower value
Description: RAS pathway inhibitors in Combinations in Complex Spheroids A high-throughput screen of multi-cell type tumor spheroids was designed to identify active combinations of RAS pathway inhibitors and targeted small molecules. Complex spheroids include a stromal component modeled by human endothelial cells (HUVEC) and fibroblasts modeled by human mesenchymal stem cells (MSCs). […] Compounds. […] If the clinical Cmax for an agent had not been determined, the highest concentration tested was 10 microM. […]
Value expressed in %; do not type the unit.

| Compound | Unit Abbrev | viability, T/C |
| --- | --- | --- |
| Cc1nc(N2CCC3(CC2)COC(C)C3N)c(CO)nc1Sc1ccnc(N)c1Cl (centres undefined) + CCn1c(-c2cccnc2C(C)OC)c2c3cc(ccc31)N1CCOC(CC(NC(=O)C(C(C)C)N(C)C(=O)C3(F)CCN(C(=O)C#CC(C)(C)N(C)C)CC3)C(=O)N3CCCC(N3)C(=O)OCC(C)(C)C2)C1 | % | 70.6 |

Req: Item: CC(C)NCC(C(=O)N1CCN(c2ncnc3c2C(C)CC3O)CC1)c1ccc(Cl)cc1 (centres undefined) + CCn1c(-c2cccnc2C(C)OC)c2c3cc(ccc31)N1CCOC(CC(NC(=O)C(C(C)C)N(C)C(=O)C3(F)CCN(C(=O)C#CC(C)(C)N(C)C)CC3)C(=O)N3CCCC(N3)C(=O)OCC(C)(C)C2)C1 Test system: 695427-040-R-J1-PDC complex spheroid viability Read-out: viability, T/C Value: ?
Resp: 91.4

Req: Field: viability, T/C (695427-040-R-J1-PDC complex spheroid viability). Entry: CC(Nc1ccc2c(c1)OCCn1cc(N3C(=O)OCC3C(F)F)nc1-2)C(N)=O (centres undefined) + CCn1c(-c2cccnc2C(C)OC)c2c3cc(ccc31)N1CCOC(CC(NC(=O)C(C(C)C)N(C)C(=O)C3(F)CCN(C(=O)C#CC(C)(C)N(C)C)CC3)C(=O)N3CCCC(N3)C(=O)OCC(C)(C)C2)C1
Resp: 79.6

Req: Give the reported viability, T/C for CC(C)n1nc(-c2ccc3oc(N)nc3c2)c2c(N)ncnc21 + CCn1c(-c2cccnc2C(C)OC)c2c3cc(ccc31)N1CCOC(CC(NC(=O)C(C(C)C)N(C)C(=O)C3(F)CCN(C(=O)C#CC(C)(C)N(C)C)CC3)C(=O)N3CCCC(N3)C(=O)OCC(C)(C)C2)C1 (system: 695427-040-R-J1-PDC complex spheroid viability).
Resp: 57.3

---

tested on: 695427-040-R-J1-PDC complex spheroid viability; test: Anticancer human tumor 695427-040-R-J1-PDC cell line growth inhibition [RAS]; details: curve of first compound; second compound 0.03 µM;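 further: viability read after seven days of drug exposure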
Measure: IC50 (µM)
Write it as a number; the unit µM goes unstated.

| Molecule | Unit Abbrev | IC50 |
| --- | --- | --- |
| O=C(c1ccc(F)c(F)c1Nc1ccc(I)cc1F)N1CC(O)([C@@H]2CCCCN2)C1 + CCn1c(-c2cccnc2C(C)OC)c2c3cc(ccc31)N1CCOC(CC(NC(=O)C(C(C)C)N(C)C(=O)C3(F)CCN(C(=O)C#CC(C)(C)N(C)C)CC3)C(=O)N3CCCC(N3)C(=O)OCC(C)(C)C2)C1 | µM | 0.067 |

Let us move to another entry and its IC50.
Req: What value of IC50 has been reported for the following molecule? CC1(O)CCCC1n1c(=O)c(C(F)F)cc2cnc(NC3CCN(S(C)(=O)=O)CC3)nc21 (centres undefined) + CCn1c(-c2cc(N3CCN(C)CC3)cnc2C(C)OC)c2c3cc(ccc31)-c1csc(n1)CC(NC(=O)C1CC1C)C(=O)N1CCCC(N1)C(=O)OCC(C)(C)C2
Resp: 4.61

---

system: 695427-040-R-J1-PDC complex spheroid viability; experiment: Anticancer human tumor 695427-040-R-J1-PDC cell line growth inhibition [RAS]; details: curve of first compound; second compound 0.00949 µM;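 further: viability read after seven days of drug exposure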
Quick reference: IC50 of the listed items.

Worked cases, answers included:
| Molecule | Test System | IC50 |
| --- | --- | --- |
| C[C@@H](NC(=O)c1ncnc(N)c1Cl)c1ncc(C(=O)Nc2cc(C(F)(F)F)c(Cl)cn2)s1 + CCn1c(-c2cccnc2C(C)OC)c2c3cc(ccc31)N1CCOC(CC(NC(=O)C(C(C)C)N(C)C(=O)C3(F)CCN(C(=O)C#CC(C)(C)N(C)C)CC3)C(=O)N3CCCC(N3)C(=O)OCC(C)(C)C2)C1 | 695427-040-R-J1-PDC complex spheroid viability | > 10000 nM |
| O=C(c1ccc(F)c(F)c1Nc1ccc(I)cc1F)N1CC(O)([C@@H]2CCCCN2)C1 + CCn1c(-c2cc(N3CCN(C)CC3)cnc2C(C)OC)c2c3cc(ccc31)-c1csc(n1)CC(NC(=O)C1CC1C)C(=O)N1CCCC(N1)C(=O)OCC(C)(C)C2 | 695427-040-R-J1-PDC complex spheroid viability | 26.5 nM |
| CC(Nc1ccc2c(c1)OCCn1cc(N3C(=O)OCC3C(F)F)nc1-2)C(N)=O (centres undefined) + CCn1c(-c2cc(N3CCN(C)CC3)cnc2C(C)OC)c2c3cc(ccc31)-c1csc(n1)CC(NC(=O)C1CC1C)C(=O)N1CCCC(N1)C(=O)OCC(C)(C)C2 | 695427-040-R-J1-PDC complex spheroid viability | 581 nM |

Attention now shifts to the item below.
Req: IC50 for CC1(C)CCC(Nc2ncc(C(F)(F)F)c(-c3c[nH]c4c(P(C)(C)=O)c(C#N)ccc34)n2)CN1 (centres undefined) + CCn1c(-c2cccnc2C(C)OC)c2c3cc(ccc31)N1CCOC(CC(NC(=O)C(C(C)C)N(C)C(=O)C3(F)CCN(C(=O)C#CC(C)(C)N(C)C)CC3)C(=O)N3CCCC(N3)C(=O)OCC(C)(C)C2)C1 ?
Resp: > 300 nM

---

Listed below: viability, T/C values for each entry.
system: 695427-040-R-J1-PDC complex spheroid viability; assay: Anticancer human tumor 695427-040-R-J1-PDC cell line growth inhibition [RAS]; conditions: second compound 0.003 µM; first compound 0.1 µM; stronger effect = lower value;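 further: viability read after seven days of drug exposure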;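 on viability, T/C: 100% = DMSO vehicle control viability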
# number only, unit % dropped from output

| Compound | Measure | Reported Value |
| --- | --- | --- |
| NC1c2ccccc2OC12CCN(c1cnc3c(N4CCCc5ncccc54)n[nH]c3n1)CC2 (centres undefined) + CCn1c(-c2cc(N3CCN(C)CC3)cnc2C(C)OC)c2c3cc(ccc31)-c1csc(n1)CC(NC(=O)C1CC1C)C(=O)N1CCCC(N1)C(=O)OCC(C)(C)C2 | viability, T/C | 59.2 |
| CCC(CC)c1cc(NC2CCC(N)C2)n2nccc2n1 (centres undefined) + CCn1c(-c2cc(N3CCN(C)CC3)cnc2C(C)OC)c2c3cc(ccc31)-c1csc(n1)CC(NC(=O)C1CC1C)C(=O)N1CCCC(N1)C(=O)OCC(C)(C)C2 | viability, T/C | 99.8 |
| CC(C)NCC(C(=O)N1CCN(c2ncnc3c2C(C)CC3O)CC1)c1ccc(Cl)cc1 (centres undefined) + CCn1c(-c2cc(N3CCN(C)CC3)cnc2C(C)OC)c2c3cc(ccc31)-c1csc(n1)CC(NC(=O)C1CC1C)C(=O)N1CCCC(N1)C(=O)OCC(C)(C)C2 | viability, T/C | 85.5 |
| CC(C)n1nc(-c2ccc3oc(N)nc3c2)c2c(N)ncnc21 + CCn1c(-c2cc(N3CCN(C)CC3)cnc2C(C)OC)c2c3cc(ccc31)-c1csc(n1)CC(NC(=O)C1CC1C)C(=O)N1CCCC(N1)C(=O)OCC(C)(C)C2 | viability, T/C | 51.1 |
| O=C(c1ccc(F)c(F)c1Nc1ccc(I)cc1F)N1CC(O)([C@@H]2CCCCN2)C1 + CCn1c(-c2cc(N3CCN(C)CC3)cnc2C(C)OC)c2c3cc(ccc31)-c1csc(n1)CC(NC(=O)C1CC1C)C(=O)N1CCCC(N1)C(=O)OCC(C)(C)C2 | viability, T/C | 40 |

Req: // viability, T/C lookup, key: CC(=O)OC12COC1CC(O)C1(C)C(=O)C(O)C3=C(C)C(OC(=O)C(O)C(NC(=O)OC(C)(C)C)c4ccccc4)CC(O)(C(OC(=O)c4ccccc4)C21)C3(C)C (centres undefined) + CCn1c(-c2cccnc2C(C)OC)c2c3cc(ccc31)N1CCOC(CC(NC(=O)C(C(C)C)N(C)C(=O)C3(F)CCN(C(=O)C#CC(C)(C)N(C)C)CC3)C(=O)N3CCCC(N3)C(=O)OCC(C)(C)C2)C1
Resp: 77.1

Req: Item CCN1CCN(Cc2ccc(Nc3ncc(F)c(-c4cc(F)c5nc(C)n(C(C)C)c5c4)n3)nc2)CC1 + CCn1c(-c2cc(N3CCN(C)CC3)cnc2C(C)OC)c2c3cc(ccc31)-c1csc(n1)CC(NC(=O)C1CC1C)C(=O)N1CCCC(N1)C(=O)OCC(C)(C)C2 has what recorded viability, T/C?
Resp: 85.2

Req: Endpoint output: viability, T/C of CC(Nc1ccc2c(c1)OCCn1cc(N3C(=O)OCC3C(F)F)nc1-2)C(N)=O (centres undefined) + CCn1c(-c2cc(N3CCN(C)CC3)cnc2C(C)OC)c2c3cc(ccc31)-c1csc(n1)CC(NC(=O)C1CC1C)C(=O)N1CCCC(N1)C(=O)OCC(C)(C)C2 . Value?
Resp: 70.5

Req: viability, T/C lookup needed for C[C@@H](NC(=O)c1ncnc(N)c1Cl)c1ncc(C(=O)Nc2cc(C(F)(F)F)c(Cl)cn2)s1 + CCn1c(-c2cc(N3CCN(C)CC3)cnc2C(C)OC)c2c3cc(ccc31)-c1csc(n1)CC(NC(=O)C1CC1C)C(=O)N1CCCC(N1)C(=O)OCC(C)(C)C2 , thanks.
Resp: 91
